Target desc: T1, Tah1 (TPR-containing protein associated with Hsp90) (S. cerevisiae, UniProt P25638 1-111)
T1 sequence: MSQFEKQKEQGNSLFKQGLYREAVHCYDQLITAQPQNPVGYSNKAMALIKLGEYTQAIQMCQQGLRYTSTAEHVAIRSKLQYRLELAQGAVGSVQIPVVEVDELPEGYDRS
Assay name: ITC
pKd: −log10 of the molar value.
# cutoff 5 applies to pKd; >= gives Y, < gives N

Some entries whose results are on file:
{"Binder": "VEEVD [VEEVD pentapeptide (C-terminal end of Ssa1)]", "Class name": "N"}
{"Binder": "EDASRMEEVD [EDASRMEEVD decapeptide (C-terminal end of human Hsp90β)]", "Class name": "Y"}
{"Binder": "DDTSRMEEVD [DDTSRMEEVD decapeptide (C-terminal end of human Hsp90α)]", "Class name": "Y"}

Hello, I need to know if TEMEEVD [TEMEEVD heptapeptide (C-terminal end of yeast Hsp90)] has measured pKd not below 5. Thanks! Y

Hello, I need to know if AEGPTVEEVD [AEGPTVEEVD decapeptide (C-terminal end of Ssa1, wild-type sequence)] has measured pKd not below 5. Thanks! N
